Listed compounds paired with reported IC50
TARGET SYSTEM: rat intestinal α-glucosidase (maltase)
METHOD NOTES: rat intestinal α-glucosidase (maltase) inhibition assay
ASSAY SETUP: rat intestine; compounds, Table 2

Study these solved cases before continuing.
# COMPOUND, IC50
records = [
    ("C=C(C)[C@@H]1CC[C@]2(C(=O)O)CC[C@]3(C)[C@H](CC[C@@H]4[C@@]5(C)CC[C@H](OC(=O)CCC)C(C)(C)[C@@H]5CC[C@]43C)[C@@H]12 [Compound 2c]", "> 3000 µM"),
    ("C=C(C)[C@@H]1CC[C@]2(C(=O)N(C(=O)NC3CCCCC3)C3CCCCC3)CC[C@]3(C)[C@H](CC[C@@H]4[C@@]5(C)CC[C@H](OC(C)=O)C(C)(C)[C@@H]5CC[C@]43C)[C@@H]12 [Compound 2h]", "> 3000 µM"),
]

// next item, IC50 requested
Observed IC50, rat intestinal α-glucosidase (maltase), C=C(C)[C@@H]1CC[C@]2(C(=O)N(C(=O)NC3CCCCC3)C3CCCCC3)CC[C@]3(C)[C@H](CC[C@@H]4[C@@]5(C)CC[C@H](OC(=O)CCCCC)C(C)(C)[C@@H]5CC[C@]43C)[C@@H]12 [Compound 2l] : > 3000 µM
